tested on: Yersinia pestis (YP; Gram-negative); assay: microbe, parasite or virus in culture; type: cell-based; settings: read-out: MIC YP
readout: MIC (µg/mL)
Just the number in µg/mL, nothing appended.

// known answers, use as guide
molecule	MIC, µg/mL
Clc1ccc2[nH]c3c(OCCCNCc4c[nH]c5ccccc45)c4[nH]c5ccc(Cl)cc5c4cc3c2c1	2
Fc1ccc2[nH]c3c(OCCCNC4=NCCN4)c4[nH]c5ccc(F)cc5c4cc3c2c1 [drawing 234]	8

[Q] State, in one line, measured MIC of NC1CCN(CCCOc2c3[nH]c4ccc(F)cc4c3cc3c2[nH]c2ccc(F)cc23)CC1
[A] 2

[Q] State, in one line, measured MIC of CC/N=C(/NCCCOc1c2[nH]c3ccc(F)cc3c2cc2c1[nH]c1ccc(F)cc12)NCCCN(C)C
[A] 4

[Q] State, in one line, measured MIC of Fc1ccc2[nH]c3c(O[C@H]4CCNC4)c4[nH]c5ccc(F)cc5c4cc3c2c1 [drawing 254]
[A] 1

The measurements presented in this section are drawn from patent US8399502B2.
